Would you mind telling me the reported Percent Effect of each entry?
Test system: Mycobacterium tuberculosis
Assay: Cornell M. t heat shock assay; also: in the data most compounds retested in dose-response had high values
Assay type: functional, organism-based
Set-up: dose or concentration left out as unconfirmed
Screen size: about 69,000 compounds; about 950 (1.4%) showed an effect of 50% or more. The sample holds strong results, similar compounds and a random draw of the others, so the mix is not that of the screen.

Solved entries (count: 4):
{"Molecule": "Cl.O=C(c1ccccc1)N1CCC2(CC1)CNc1c(F)cccc12", "Percent Effect": "9.544%"}
{"Molecule": "COC[C@]12COC[C@H]1CN(Cc1ccc3c(c1)OCO3)C2.O=C(O)C(F)(F)F", "Percent Effect": "-2.808%"}
{"Molecule": "Cn1cc2c(n1)C(CNCc1ccco1)OCC2.O=C(O)C(F)(F)F.O=C(O)C(F)(F)F (stereo not given)", "Percent Effect": "-43.95%"}
{"Molecule": "O=C(O)C(F)(F)F.O=C(O)C(F)(F)F.O=C1CO[C@@H]2CN(CC3CCOCC3)C[C@H]2N1Cc1ccncc1", "Percent Effect": "-5.107%"}

Now examine the next entry.
Fill blank: measured Percent Effect of the molecule CC(C)(C)C(=O)NC(c1nccs1)C1CCN(CC2CCCCC2)CC1.Cl (stereo not given) is ____.
4.524%

###

Tested on: Mycobacterium tuberculosis
Assay: Cornell M. t heat shock assay; also: in the data most compounds retested in dose-response had high values
Type: functional, organism-based
Design: dose or concentration left out as unconfirmed
Screen size: about 69,000 compounds; about 950 (1.4%) showed an effect of 50% or more. The list comes from a sample in which strong results are over-represented; it also holds close analogues and randomly drawn compounds.
Record true (1) whenever Percent Effect is at 30% or higher; record false (0) when lower.

{"Compound": "CC(C)CC(=O)N1CC(=O)N(Cc2ccco2)CC(O)C1 (stereo unspecified)", "Qualitative Label": "false (0)"}
{"Compound": "O=C(O)C(F)(F)F.O=c1cc(CNS(=O)(=O)C2CC2)nc2n1CCCN(CC1CC1)C2", "Qualitative Label": "false (0)"}
{"Compound": "COc1cccc(CN2CC(O)CN(C(=O)C3CC3)CC2=O)c1OC (stereo unspecified)", "Qualitative Label": "true (1)"}
{"Compound": "CC(C)(C)OC(=O)N1CC(=O)N(Cc2ccco2)CC(O)C1 (stereo unspecified)", "Qualitative Label": "false (0)"}
{"Compound": "COCCN1C[C@H]2CC[C@@H]1CN(CC(=O)Nc1ccn(C)n1)C2", "Qualitative Label": "false (0)"}
{"Compound": "COCCN1C[C@H]2CC[C@@H]1CN(Cc1ccc3ccccc3n1)C2", "Qualitative Label": "true (1)"}

Does the reported Percent Effect for COc1cc(N2C[C@@H]3CC[C@H](C2)N(CC2CCC2)C3=O)ncn1 fall at or above the 30% mark?
false (0)

hey, is Percent Effect for this one >= 30%? CN(Cc1ccccc1OC(F)(F)F)C(=O)C1CCCN(C(N)=O)C1 (stereo unspecified)
true (1)

Is Percent Effect at least 30%? Consider O=c1cc(CN2C[C@H]3CC[C@@H]2CN(Cc2ccccc2)C3)[nH]c(=O)[nH]1
false (0)

Confirm if Percent Effect reported for the compound Cc1ccc(CN2CCOCC3(CCN(Cc4cccs4)C3)C2)o1.O=C(O)C(F)(F)F.O=C(O)C(F)(F)F (stereo unspecified) is 30% or above.
false (0)

Percent Effect >= 30% for COc1ccccc1C(=O)N1CC(=O)N(CC2CC2)CC(O)C1 (stereo unspecified) ?
true (1)

In plain terms: is recorded Percent Effect at least 30% for c1cnn(CC2CN(c3ncnc4ccsc34)CCO2)c1 (stereo unspecified) ?
true (1)

Quick check, Percent Effect >= 30%? CC(C)(C)C(=O)N1CC(=O)N(Cc2ccco2)CC(O)C1 (stereo unspecified)
true (1)
